- EXPERIMENTAL TARGET: T1, 重组人碱性成纤维细胞生长因子(bFGF) (human, UniProt P09038 143-288, limits assumed)
- T1 construct: Bought protein; also called 重组人bFGF; bFGF抗原
- T1 sequence (P09038 143-288 limits assumed): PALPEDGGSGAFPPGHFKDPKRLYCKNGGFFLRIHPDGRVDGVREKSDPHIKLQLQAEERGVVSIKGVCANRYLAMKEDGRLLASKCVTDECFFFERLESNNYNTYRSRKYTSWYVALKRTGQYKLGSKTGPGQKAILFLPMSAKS
- TEST METHOD NOTES: SPR, bFGF immobilised on the chip, nanobody 3.125-200 nM in flow
READOUT NAME: Kd (nM)
The reply should be a number in nM, with the unit left off.

抗bFGF纳米抗体 Nb5 (VHH, Alpaca nanobody; Nickel-purified, anti-Flag detected; also called Nb bFGF) VHH: LQESGGGLVQAGGSLRLSCAASGRTFSSGAMGWFRQAPGKEPEFVATITWDGGTTYYADSVKGRYTISRDNAKNTVYLQMNDLKPEDTAVYSCAARSYSEAYYLIGSSDYNYWGQGTQVTVSS = 12.4

Prompt line: Data request, read-out Kd, for 抗bFGF纳米抗体 Nb1 (VHH, Expressed from pET22b in E. coli, purified on a nickel column and detected with an anti-Flag antibody; also called Nb bFGF) VHH: LQESGGDLVQPGGSLRLSCEVSGSNFSNNDMGWYRQAPGKQREVVAGISSVGRTMYGDPVKGRFTISRDNAKNMVYLQMNRLKAKDTAVYYCHLYGDYRGTGFWGKGTQVTVSS
Response line: 11.3

Prompt line: Data request, read-out Kd, for 抗bFGF纳米抗体 Nb2 (VHH, Alpaca nanobody; Nickel-purified, anti-Flag detected; also called Nb bFGF) VHH: LQESGGDLVQPGGSLRLSCEVSGSNFSINDMGWYRQAPGKRREVVAGISSVGRAMYADPVKGRFTISRDNAKNMVYLQMNRLKPEDTAVYYCYLYGDYRGTGFWGKGTQVTVSS
Response line: 318
